Target chain: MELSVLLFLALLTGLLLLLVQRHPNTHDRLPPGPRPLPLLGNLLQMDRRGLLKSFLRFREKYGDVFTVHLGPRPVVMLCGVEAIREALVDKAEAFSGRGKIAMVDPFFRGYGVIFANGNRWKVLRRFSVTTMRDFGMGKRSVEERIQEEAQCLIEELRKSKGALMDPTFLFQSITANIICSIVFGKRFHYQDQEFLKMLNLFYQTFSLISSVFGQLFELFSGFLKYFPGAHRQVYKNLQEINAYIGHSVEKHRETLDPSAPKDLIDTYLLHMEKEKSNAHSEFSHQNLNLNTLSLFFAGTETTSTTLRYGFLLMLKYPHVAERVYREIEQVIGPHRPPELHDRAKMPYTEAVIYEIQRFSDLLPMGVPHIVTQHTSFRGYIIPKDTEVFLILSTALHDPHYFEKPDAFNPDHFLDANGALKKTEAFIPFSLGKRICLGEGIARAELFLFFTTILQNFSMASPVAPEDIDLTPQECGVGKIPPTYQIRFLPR
property_label: IC50 (nM)
One number for each entry, in nM.

Prompt line: Identify IC50 associated with the compound CC(=O)[O][Pt]([NH2])([NH2])([Cl])([Cl])[O]C(=O)NCCCCCN1C(=O)C=CC1=O
Response line: 582

Cited source: patent US20190350940A1
